// Rate constant with Cdk2 R122C lookup, one value per entry
ASSAY_SYSTEM: Cdk2(R122C) (C177A) (Homo sapiens, UniProt P24941, C177A/R122C)
Construct: poly-histidine; made in house; host or cells: E. coli
ASSAY_PROTOCOL: Kinetic thiol consumption assay with Cdk2 mutant R122C
Type: binding
TEST_CONDITIONS: Protein: Cdk2; cysteine position R122C; additional mutation C177A; in h-1
Description: To wells containing 150 μL thiol (Cdk2 or model thiol) (5 μM) in degassed phosphate buffer (pH 8) was added immobilized TCEP beads (2% v/v). After incubation of the fluorescence plates for 1 hour at room temperature, fluorescence measurements (excitation/emission of 380/470 nm) were taken on a PerkinElmer EnVision multilabel plate reader and processed with EnVision Workstation version 1.12. Fluorescence measurements were normalized against a DMSO/thiol only control and plotted against time. […]
READOUT_TYPE: Rate constant with Cdk2 R122C

1) C=CC(=O)N1CC2CCN(Cc3ccccc3)C2C1 (stereo not drawn) | 0.007009
2) C=CC(=O)N1CCn2c(C(=O)NC3CC3)ccc2C1C (stereo not drawn) | 0.01222
3) C=CC(=O)N1CCC(c2nc3ccccc3[nH]2)CC1 | 0.004438
4) C=CC(=O)N1CCN(C(=O)OC(C)(C)C)CC1 | 0.004289
5) C=CC(=O)Nc1nc2c(s1)CCCCCC2 | 0.02508
6) C=CC(=O)N(Cc1ccco1)C12CC3CC(CC(C3)C1)C2 | 0.003114
7) C=CC(=O)N1CCC2CCC(C1)N2C (stereo not drawn) | 0.006009
8) C=CC(=O)NCc1ccccc1 | 0.004047
9) C=CC(=O)N(Cc1ccco1)Cc1cc2cc(C)ccc2o1 | 0.2555
10) C=CC(=O)NC1c2ccccc2Oc2ccccc21 | 0.00155
11) C=CC(=O)N1CCCC(C(=O)OCC)C1 (stereo not drawn) | 0.001907
12) C=CC(=O)N1CCN(c2cc(N3CCOCC3)ncn2)CC1 | 0.004389
13) C=CC(=O)N(CCCN1CCOCC1)Cc1ccncc1 | 0.001825
14) C=CC(=O)N1CCN(C(=O)OC(C)(C)C)c2ccccc21 | 0.004819
15) C=CC(=O)Nc1ccc2nc(C)[nH]c2c1 | 0.006219
16) CN(C#N)Cc1ccccc1 | 0.0008504
17) CC1CN(C(=O)CCl)CC(C)O1 (stereo not drawn) | 0.00759
18) C=CC(=O)N1CC2CCCCCCC21 (stereo not drawn) | 0.008918
19) C=CC(=O)NCCc1c(-c2ccccn2)[nH]c2ccccc12 | 0.0005988
20) C#CCN1CCCN(C(=O)C=C)CC1 | 0.002681
21) C=CC(=O)N1CC2CN(Cc3ccccc3)CC2C1 (stereo not drawn) | 0.006109
22) C=CC(=O)N1CCCc2cc(C(=O)OC)ccc21 | 0.01447
23) C=CC(=O)N1CCN(c2ccccc2[N+](=O)[O-])CC1 | 0.005054
24) C=CC(=O)N1CCCc2sccc2C1 | 0.01185

====

ASSAY_SYSTEM: Cdk2(S276C) (C177A) (Homo sapiens, UniProt P24941, C177A/S276C)
Construct: poly-histidine; made in house; host or cells: E. coli
ASSAY_PROTOCOL: Kinetic thiol consumption assay with Cdk2 mutant S276C
Assay type: binding
Design: key: rate constant with Cdk2 ÷ rate constant with model thiol (fold)
TEST_CONDITIONS: Cdk2 S276C, additional mutation C177A
Procedure: To wells containing 150 μL thiol (Cdk2 or model thiol) (5 μM) in degassed phosphate buffer (pH 8) was added immobilized TCEP beads (2% v/v). After incubation of the fluorescence plates for 1 hour at room temperature, fluorescence measurements (excitation/emission of 380/470 nm) were taken on a PerkinElmer EnVision multilabel plate reader and processed with EnVision Workstation version 1.12. Fluorescence measurements were normalized against a DMSO/thiol only control and plotted against time. […]
Classification by Rate enhancement, Cdk2 S276C | ranges: I: < 0.3; II: ≥ 0.3 and < 0.4; III: ≥ 0.4

1. C=CC(=O)N(c1ccc2c(c1)OCCO2)C1CC1 [CA-167] | II
2. C=CC(=O)N(CC(=O)N1CCCC1)CC1CCCO1 (centres unmarked) [CA-080/239] | I
3. C=CC(=O)NC1CC(NC(=O)C2CCC2)C1 (centres unmarked) [CA-202] | II
4. C=CC(=O)NCC1(NC(=O)OC(C)(C)C)CCCCC1 [EL-1143] | III
5. C=CC(=O)NC1C[C@@H](C(=C)C)CC=C1C (some centres unmarked) [EL-1074] | III
6. C=CC(=O)N1CCCC1c1cnc2ccccc2c1 (centres unmarked) [EL-1064] | III
7. N#Cc1ccncn1 [EN007] | I
8. C=CC(=O)NC(Cc1ccccc1)C(O)CF (centres unmarked) [EL-1164] | I
9. Cn1cc(S(=O)(=O)N2CCOCC2)cc1C(=O)NC(=O)CCl [EN002] | I
10. C=CC(=O)N1CCn2cccc2C1c1ccccc1 (centres unmarked) [CA-187] | III

====

ASSAY_SYSTEM: Cdk2(S181C) (C177A) (Homo sapiens, UniProt P24941, C177A/S181C)
Construct: poly-histidine; made in house; host or cells: E. coli
ASSAY_PROTOCOL: Kinetic thiol consumption assay with Cdk2 mutant S181C
Assay type: binding
Parameters: key: rate constant with Cdk2 ÷ rate constant with model thiol (fold)
TEST_CONDITIONS: Cdk2 S181C, additional mutation C177A
READOUT_TYPE: Rate enhancement, Cdk2 S181C

1. C=CC(=O)N1CCOC2(CCCCC2)C1 | 0.4083
2. C=CC(=O)N1CCC2(CC1)NC(=O)N(C)C2=O | 0.1987
3. C=CC(=O)N1CC2CCN(Cc3ccccc3)C2C1 (stereo not drawn) | 0.2548
4. CC1CN(C(=O)CCl)CC(C)O1 (stereo not drawn) | 0.067
5. C=CC(=O)N1CCN(S(C)(=O)=O)CC1c1ccccc1 (stereo not drawn) | 0.4684
6. C=CC(=O)Nc1ccccc1C#N | 0.5323

====

ASSAY_SYSTEM: human cyclin-dependent kinase 2 (Cdk2) (Homo sapiens, UniProt P24941)
Construct: poly-histidine; made in house; host or cells: E. coli
ASSAY_PROTOCOL: Kinetic thiol consumption assay with wild type Cdk2 (C177)
Format: binding
Set-up: key: k(Cdk2) divided by k(model thiol)
TEST_CONDITIONS: Cdk2 WT, no additional mutations
Binarize Rate enhancement, Cdk2 WT at 1; below is MET, at or above is NOT MET.

1. C=CC(=O)Nc1nc2ccccc2n1CCc1ccccn1 | NOT MET
2. C=CC(=O)NCc1ccc(C(=O)OC)cc1 | MET
3. C=CC(=O)N1CCCC1c1ccc(OC)cc1 (stereo not shown) | NOT MET
4. C=CC(=O)NCCN1CCOCC1 | NOT MET
5. C=CC(=O)Nc1cccc(-c2nnnn2C2CC2)c1 | NOT MET
6. C=CC(=O)N1CCn2c(C(=O)NC3CC3)ccc2C1C (stereo not shown) | MET
7. C=CC(=O)NC(Cc1ccccc1)C(O)CF (stereo not shown) | MET
8. C=CC(=O)N1CCN(c2cccc3cccnc23)CC1 | NOT MET
9. C=CC(=O)NCCNC(=O)c1ccccc1 | NOT MET
10. C=CC(=O)N(Cc1ccc2c(c1)CCO2)C1CCCC1 | NOT MET
11. C=CC(=O)N1CC(Cc2ccccc2)C1 | NOT MET
12. O=S1(=O)C=CC(Br)C1 (stereo not shown) | NOT MET
13. N#Cc1ccncn1 | MET
14. C=CC(=O)NC1(C2CC2)CC1 | MET
15. C=CC(=O)N1CC2(CCC2)c2c(F)cccc21 | NOT MET
16. C=CC(=O)N1CCCCCC1c1ccc(N(C)C)cc1 (stereo not shown) | MET
17. CN(C#N)Cc1ccccc1 | MET
18. C=CC(=O)NC1(c2noc(C3CC3)n2)CCCC1 | MET
19. C=CC(=O)N1CC(n2cccn2)C1 | MET
20. C=CC(=O)NCCc1c[nH]c2ccccc12 | MET
21. C=CC(=O)N1CCC2(CC1)NC(=O)N(C)C2=O | MET
22. C=CC(=O)N(Cc1ccco1)Cc1cc2cc(C)ccc2o1 | MET
23. C=CC(=O)N1CCn2c(Cc3ccccc3)nnc2C1 | NOT MET
24. C=CC(=O)Nc1sc2c(c1C(=O)NC1CC1)CCC2 | NOT MET
25. C=CC(=O)N1CCc2sccc2C1c1cccs1 (stereo not shown) | NOT MET

====

ASSAY_SYSTEM: Cdk2(T182C) (C177A) (Homo sapiens, UniProt P24941, C177A/T182C)
Construct: poly-histidine; made in house; host or cells: E. coli
ASSAY_PROTOCOL: Kinetic thiol consumption assay with Cdk2 mutant T182C
Format: binding
Set-up: key: rate constant with Cdk2 ÷ rate constant with model thiol (fold)
TEST_CONDITIONS: Cdk2 T182C, additional mutation C177A
READOUT_TYPE: Rate enhancement, Cdk2 T182C

1. C=CC(=O)Nc1[nH]nc(C2CC2)c1-c1ccc2c(c1)OCO2 [CA-041] | 0.8554
2. C=CC(=O)N1CC(OCCN(CC)CC)C1 [CA-145] | 1.904
3. C=CC(=O)N1CCn2c(C(=O)NC3CC3)ccc2C1C (stereo not shown) [CA-040/230] | 1.268
4. C=CC(=O)NCCc1c(-c2ccccn2)[nH]c2ccccc12 [EL-1083] | 0.9139
5. C=CC(=O)N1CCCCCC1c1cccnc1 (stereo not shown) [EL-1059] | 1.009
6. C=CC(=O)N1CCC(c2nc3ccccc3[nH]2)CC1 [EL-1152] | 3.834
7. C=CC(=O)N1CCC(c2nnc3n2CCC3)CC1 [CA-106] | 3.971
8. C=CC(=O)N1CCC(NC(=O)C2CCC2)C1 (stereo not shown) [CA-088] | 0.9096
9. C=CC(=O)Nc1ccccc1C(=O)c1ccccc1 [EL-1004] | 7.09
10. C=CC(=O)N(C1CC1)C1CCCCC1C1CCCCC1 (stereo not shown) [CA-081/240] | 8.314
11. C=CC(=O)N1CCN(C(=O)OCC)CC1c1cccs1 (stereo not shown) [EL-1121] | 1.411
12. C=CC(=O)N1CC2CN(Cc3ccccc3)CC2C1 (stereo not shown) [CA-207] | 0.921
13. C=CC(=O)N1CCN(C(=O)OC(C)(C)C)CC1 [CA-029] | 1.766
14. C=CC(=O)NCC1CN(C2CC2)CCO1 (stereo not shown) [CA-038] | 1.744
15. C=CC(=O)Nc1nc2ccccc2n1CCc1ccccn1 [CA-144] | 2.327
16. C=CC(=O)N1C(=O)CC(c2ccccc2)N(C(=O)C=C)c2ccccc21 (stereo not shown) [CA-165-1] | 0
17. C=CC(=O)NC1CC(NC(=O)C2CCC2)C1 (stereo not shown) [CA-202] | 2.301
18. C=CC(=O)Nc1cccc2ncccc12 [CA-012] | 5.8
19. C=CC(=O)N1CCC2(CCCN(Cc3ccccc3)C2)C1 (stereo not shown) [CA-141] | 0.5125
20. C=CC(=O)NCCc1c[nH]c2ccccc12 [EL-1174] | 1.377
21. C=CC(=O)N1CC2CCN(Cc3ccccc3)C2C1 (stereo not shown) [CA-190] | 0.8134
22. O=C(CCl)N1CCCCCC1 [EN011] | 0.4574
23. C=CC(=O)N1CCCC(C(=O)OCC)C1 (stereo not shown) [EL-1187] | 4.397
24. C=CC(=O)Nc1cccc(C(=O)c2ccccc2)c1 [CA-218] | 9.969
25. C=CC(=O)N1CCN(Cc2noc(C3CC3)n2)CC1 [CA-091] | 2.003
26. C=CC(=O)N1CCn2cccc2C1c1ccccc1 (stereo not shown) [CA-187] | 4.62
27. C=CC(=O)NCCc1c(-c2ccccn2)[nH]c2ccc(F)cc12 [EL-1084] | 1.828
28. C=CC(=O)N1CCN(c2ccccc2[N+](=O)[O-])CC1 [EL-1134] | 14.4
29. C=CC(=O)N1CCc2cc(-c3cccc(F)c3)ccc21 [CA-042] | 5.547
30. C=CC(=O)NC1CC2CC1C1CCCC21 (stereo not shown) [CA-159] | 0.9382
31. C=CC(=O)NCCNC(=O)C1CCCN1S(=O)(=O)c1ccccc1 (stereo not shown) [CA-224] | 1.292
32. Cn1cc(S(=O)(=O)N2CCOCC2)cc1C(=O)NC(=O)CCl [EN002] | 2.567
33. C=CC(=O)NCCNC(=O)c1ccccc1 [CA216] | 59.66
34. C=CC(=O)NCc1ccc(OC)cc1 [BN-63] | 0.7193
35. C=CC(=O)NCC1CCCN1S(=O)(=O)c1ccc(C(=O)O)cc1 (stereo not shown) [BN122] | 2.502
36. C=CC(=O)NCCCN(C(=O)C1CCC1)C1CC1 [CA-060] | 1.619
37. O=S1(=O)C=CC(Br)C1 (stereo not shown) [EN010] | 4.219
38. C=CC(=O)N1CCCC(N2C(=O)CC3(CCCC3)C2=O)C1 (stereo not shown) [CA-236] | 1.042
39. C=CC(=O)N1CCC2(CC1)CC2C(=O)OC (stereo not shown) [CA-039] | 1.425
40. C=CC(=O)Nc1ccc(-c2ncccn2)cc1 [CA-037] | 12.3
41. C=CC(=O)NC1c2ccccc2Oc2ccccc21 [CA-171] | 13.51
42. C=CC(=O)NC1C2C3CCC(C3)C12 (stereo not shown) [CA-097] | 1.447
43. O=C(CCl)NCCc1c[nH]c2ccccc12 [EN005] | 11.33
44. C=CC(=O)N1CCCCCC1C/C=C/c1ccccc1 (stereo not shown) [CA-096/146] | 10.32
45. C=CC(=O)NC(C)c1cccc(N2CCOCC2)c1 (stereo not shown) [EL-1153] | 0.474
46. C#CCN1CCCN(C(=O)C=C)CC1 [CA-196] | 2.74
